Assay: Ratio of LC50(NRKE) to LC50(H/1.2-NRK) expressed as differential induces(DI) was determined
Format: ADME
Conditions: rat, NRKE cells and H/1.2-NRK cells
parameter: selectivity ratio

{"columns": ["molecule", "observed"],
 "data": [
  ["C=C(CN(CC(=C)S(C)(=O)=O)C1CC(C(C)(C)C)CCC1O)S(C)(=O)=O (stereo unspecified)", 1]
]}

----------
Known log10(ED50) of a selection of molecules
Tested on: Malme-3M
Assay: In vitro cytotoxicity in human tumor melanoma MALME-3M cell lines
Assay type: functional
parameter: log10(ED50) (log10 of the value in M l-1)

{"columns": ["molecule", "parameter", "observed"],
 "data": [
  ["C=C(CN(C)C1CC(C(C)(C)C)CCC1O)S(C)(=O)=O (configuration not stated)", "log10(ED50)", -6.32],
  ["C=C(CCl)S(C)(=O)=O", "log10(ED50)", -5.19],
  ["C=C(CN1C(=O)OC2CCC(C(C)(C)C)CC21)S(C)(=O)=O (configuration not stated)", "log10(ED50)", -4.96],
  ["C=C(CNC1CC(C(C)(C)C)CCC1O)S(C)(=O)=O (configuration not stated)", "log10(ED50)", -6.22],
  ["C=C(CN1COC2CCC(C(C)(C)C)CC21)S(C)(=O)=O (configuration not stated)", "log10(ED50)", -6.00],
  ["C=C(CN(CC(=C)S(C)(=O)=O)C1CC(C(C)(C)C)CCC1O)S(C)(=O)=O (configuration not stated)", "log10(ED50)", -5.38]
]}

----------
Assay: In vitro toxicity against ras transformed H/1.2-NRK cell lines was determined
Details: rat, ras transformed H/1.2-NRK cells; read-out: LC50 (the source's name)
molecules and their reported CC50

{"columns": ["molecule", "CC50"],
 "data": [
  ["C=C(CN1COC2CCC(C(C)(C)C)CC21)S(C)(=O)=O (stereo not drawn)", "2100 nM"],
  ["C=C(CN1C(=O)OC2CCC(C(C)(C)C)CC21)S(C)(=O)=O (stereo not drawn)", "4700 nM"],
  ["C=C(CN(CC(=C)S(C)(=O)=O)C1CC(C(C)(C)C)CCC1O)S(C)(=O)=O (stereo not drawn)", "2500 nM"]
]}

----------
Assay: In vitro toxicity against ras transformed NRKE cell lines was determined
Assay type: cell-based
Settings: rat, NRKE cells; read-out: LC50 (the source's name)

{"columns": ["compound", "CC50 [nM]"],
 "data": [
  ["C=C(CN1COC2CCC(C(C)(C)C)CC21)S(C)(=O)=O (stereo not drawn)", 1400],
  ["C=C(CN1C(=O)OC2CCC(C(C)(C)C)CC21)S(C)(=O)=O (stereo not drawn)", 4400],
  ["C=C(CN(CC(=C)S(C)(=O)=O)C1CC(C(C)(C)C)CCC1O)S(C)(=O)=O (stereo not drawn)", 2400]
]}

----------
Here the recorded CC50 is given for each entry.
Test: In vitro toxicity against ras transformed 3LL cell lines was determined
Type: cell-based
Conditions: ras transformed 3LL cells; read-out: LC50 (the source's name)
parameter: CC50

{"columns": ["molecule", "parameter", "observed"],
 "data": [
  ["C=C(CN(CC(=C)S(C)(=O)=O)C1CC(C(C)(C)C)CCC1O)S(C)(=O)=O (stereo not drawn)", "CC50", "800 nM"],
  ["C=C(CN1COC2CCC(C(C)(C)C)CC21)S(C)(=O)=O (stereo not drawn)", "CC50", "500 nM"],
  ["C=C(CN1C(=O)OC2CCC(C(C)(C)C)CC21)S(C)(=O)=O (stereo not drawn)", "CC50", "3100 nM"]
]}
